Provide the reported inhibition in vivo at 20 mg/kg of each item.
system: Rattus norvegicus; assay: Percent inhibition for analgesic activity by trypsin-induced hyperalgesia assay at 20 mg/kg by oral administration in rats.; format: functional

Item `NC(=O)/C=C1\CCc2ccc(F)cc21` with Rattus norvegicus - inhibition in vivo at 20 mg/kg? 14%

Would you mind doing `CCCNC(=O)/C=C1\CCc2ccc(F)cc21` as well? 11%

Would you mind doing `O=C(/C=C1\CCc2c(F)ccc(F)c21)NC1CC1` as well? 2%

Would you mind doing `O=C(/C=C1\CCc2ccc(F)cc21)N1CCCC1` as well? 10%

Would you mind doing `CC(C)NC(=O)/C=C1\CCc2ccc(F)cc21` as well? 83%

Would you mind doing `O=C(/C=C1\CCc2c1ccc(F)c2F)NC1CC1` as well? 11%

Would you mind doing `CN(C)C(=O)/C=C1\CCc2ccc(F)cc21` as well? 88%

Would you mind doing `NC(=O)/C=C1\CCc2c1ccc(F)c2F` as well? 41%

Would you mind doing `NC(=O)/C=C1\CCc2ccccc21` as well? 88%

Would you mind doing `CNC(=O)/C=C1\CCc2ccc(F)cc21` as well? 58%

Would you mind doing `O=C(/C=C1\CCc2ccc(F)cc21)N1CCC1` as well? 7%

Would you mind doing `O=C(/C=C1\CCc2ccc(F)cc21)NCCO` as well? 33%

Would you mind doing O=C(/C=C/c1cccc(F)c1)NC1CC1 [CINFLUMIDE] as well? < 20%

----------
Provide the reported ED50 of each item.
system: Rattus norvegicus; experiment: Antiinflammatory activity in cells using Carrageenan pleurisy assay by oral administration; format: functional
Your answer is read as mg/kg, so omit the unit and give the number.

# ED50 lookup, item `NC(=O)/C=C1\CCc2ccc(Cl)cc21` 27

Would you mind doing `O=C(/C=C1\CCc2ccc(F)cc21)Nc1ccccc1` as well? 8

Would you mind doing `O=C(/C=C1\CCc2ccc(F)cc21)NCc1ccccc1` as well? 16

Would you mind doing `CN(C)C(=O)/C=C1\CCc2ccc(F)cc21` as well? 16

Would you mind doing `CNC(=O)/C=C1\CCc2cc(F)c(F)cc21` as well? 18

Would you mind doing `NC(=O)/C=C1\CCc2ccc(F)cc21` as well? 21

Would you mind doing `O=C(/C=C1\CCc2ccc(F)cc21)NC1CCCC1` as well? 14

Would you mind doing `NC(=O)/C=C1\CCc2cc(F)c(F)cc21` as well? 13

----------
test system: Rattus norvegicus; test: Percent inhibition for analgesic activity by trypsin-induced hyperalgesia assay at 20 mg/kg by oral administration in rats.; type: functional
Provide the reported inhibition in vivo at 20 mg/kg of each item.

# inhibition in vivo at 20 mg/kg lookup, item `NC(=O)/C=C1\CCc2cc(Cl)ccc21` 42%

Would you mind doing `CNC(=O)/C=C1\CCc2ccc(Br)cc21` as well? 4%

Would you mind doing `NC(=O)/C=C1\CCc2c(F)cccc21` as well? 68%

Would you mind doing `CNC(=O)/C=C1\CCc2cc(F)c(F)cc21` as well? 100%

Would you mind doing `COc1ccc2c(c1)CC/C2=C\C(N)=O` as well? 13%

Would you mind doing `NC(=O)/C=C1\CCc2c(Cl)cccc21` as well? 29%

Would you mind doing `NC(=O)/C=C1\CCc2cc(F)cc(F)c21` as well? 93%

Would you mind doing `CCN(C)C(=O)/C=C1\CCc2ccc(F)cc21` as well? 77%

Would you mind doing `Cc1cccc2c1CC/C2=C\C(N)=O` as well? 25%
